# Test system: MDA-MB-231 (breast)
# assayProtocol: In vitro cytotoxic activity assay (MTT), MDA-MB-231
# Assay type: cell-based
# testSettings: Homo sapiens; MDA-MB-231 (breast) cells, exposed for 96 hours; read-out: IC50, concentration eliciting 50% inhibition of cell proliferation
recordedMetric: IC50 (µM)
Answer format: numeric, µM implied, no suffix.

**Q:** Fill blank: measured IC50 of the molecule O=C1Nc2nc(Nc3cccc(Cl)c3)c3cc(C(=O)O)ccc3c2C1=O is ____.
**A:** 4.1

====

# System: MCF7 (breast)
# assayProtocol: In vitro cytotoxic activity assay (MTT), MCF7
# Assay type: cell-based
# testSettings: Homo sapiens; MCF7 (breast) cells, exposed for 96 hours; read-out: IC50, concentration eliciting 50% inhibition of cell proliferation
recordedMetric: pIC50
Worth noting: pIC50 values are minus log10 of concentrations stated in mol/L.

**Q:** Fill blank: measured pIC50 of the molecule O=C1Nc2nc(Nc3cccc(Cl)c3)c3cc(C(=O)O)ccc3c2C1=O is ____.
**A:** 5.26
